The measurements presented in this section are drawn from patent US11897862B2.

Answer each item with its documented Dmax.
- subject.of.test: IKZF2 (Homo sapiens, UniProt Q96SW2+Q9UKS7)
- assay.notes: HEK293 HiBiT in vitro degradation of IKZF2
- Format: cell-based
- Set-up: expressed in transfected cells
- cond: HEK293, HEK293 HiBiT; maximum degradation at the highest concentration tested
- Sequence (Q9UKS7 1-500 isoform Q9UKS7-2): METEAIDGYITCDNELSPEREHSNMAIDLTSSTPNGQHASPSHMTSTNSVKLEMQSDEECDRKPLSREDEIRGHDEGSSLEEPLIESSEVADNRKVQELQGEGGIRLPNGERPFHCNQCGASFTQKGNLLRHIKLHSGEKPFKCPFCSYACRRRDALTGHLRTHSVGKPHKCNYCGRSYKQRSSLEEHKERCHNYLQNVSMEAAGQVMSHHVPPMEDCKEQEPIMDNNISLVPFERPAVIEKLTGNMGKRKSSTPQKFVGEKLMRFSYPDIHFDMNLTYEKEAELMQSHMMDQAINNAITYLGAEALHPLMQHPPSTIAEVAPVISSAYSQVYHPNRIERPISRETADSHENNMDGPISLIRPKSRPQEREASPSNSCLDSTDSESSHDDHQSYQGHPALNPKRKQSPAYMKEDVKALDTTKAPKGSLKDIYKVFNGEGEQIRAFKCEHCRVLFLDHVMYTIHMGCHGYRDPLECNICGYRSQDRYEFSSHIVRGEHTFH
- Sequence (Q96SW2 whole entry): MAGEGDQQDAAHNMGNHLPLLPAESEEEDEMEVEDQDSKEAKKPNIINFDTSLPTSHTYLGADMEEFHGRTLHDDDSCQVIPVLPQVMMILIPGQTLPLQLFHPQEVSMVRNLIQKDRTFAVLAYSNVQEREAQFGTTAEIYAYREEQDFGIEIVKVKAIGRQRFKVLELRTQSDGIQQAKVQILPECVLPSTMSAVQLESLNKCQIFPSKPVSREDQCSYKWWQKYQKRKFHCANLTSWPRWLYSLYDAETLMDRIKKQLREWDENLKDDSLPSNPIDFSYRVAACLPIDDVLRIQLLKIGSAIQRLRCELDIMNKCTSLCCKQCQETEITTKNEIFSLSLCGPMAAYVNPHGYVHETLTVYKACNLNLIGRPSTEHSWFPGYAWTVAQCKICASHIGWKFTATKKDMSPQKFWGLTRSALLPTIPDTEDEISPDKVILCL
- Sequence (Q16531 whole entry partner): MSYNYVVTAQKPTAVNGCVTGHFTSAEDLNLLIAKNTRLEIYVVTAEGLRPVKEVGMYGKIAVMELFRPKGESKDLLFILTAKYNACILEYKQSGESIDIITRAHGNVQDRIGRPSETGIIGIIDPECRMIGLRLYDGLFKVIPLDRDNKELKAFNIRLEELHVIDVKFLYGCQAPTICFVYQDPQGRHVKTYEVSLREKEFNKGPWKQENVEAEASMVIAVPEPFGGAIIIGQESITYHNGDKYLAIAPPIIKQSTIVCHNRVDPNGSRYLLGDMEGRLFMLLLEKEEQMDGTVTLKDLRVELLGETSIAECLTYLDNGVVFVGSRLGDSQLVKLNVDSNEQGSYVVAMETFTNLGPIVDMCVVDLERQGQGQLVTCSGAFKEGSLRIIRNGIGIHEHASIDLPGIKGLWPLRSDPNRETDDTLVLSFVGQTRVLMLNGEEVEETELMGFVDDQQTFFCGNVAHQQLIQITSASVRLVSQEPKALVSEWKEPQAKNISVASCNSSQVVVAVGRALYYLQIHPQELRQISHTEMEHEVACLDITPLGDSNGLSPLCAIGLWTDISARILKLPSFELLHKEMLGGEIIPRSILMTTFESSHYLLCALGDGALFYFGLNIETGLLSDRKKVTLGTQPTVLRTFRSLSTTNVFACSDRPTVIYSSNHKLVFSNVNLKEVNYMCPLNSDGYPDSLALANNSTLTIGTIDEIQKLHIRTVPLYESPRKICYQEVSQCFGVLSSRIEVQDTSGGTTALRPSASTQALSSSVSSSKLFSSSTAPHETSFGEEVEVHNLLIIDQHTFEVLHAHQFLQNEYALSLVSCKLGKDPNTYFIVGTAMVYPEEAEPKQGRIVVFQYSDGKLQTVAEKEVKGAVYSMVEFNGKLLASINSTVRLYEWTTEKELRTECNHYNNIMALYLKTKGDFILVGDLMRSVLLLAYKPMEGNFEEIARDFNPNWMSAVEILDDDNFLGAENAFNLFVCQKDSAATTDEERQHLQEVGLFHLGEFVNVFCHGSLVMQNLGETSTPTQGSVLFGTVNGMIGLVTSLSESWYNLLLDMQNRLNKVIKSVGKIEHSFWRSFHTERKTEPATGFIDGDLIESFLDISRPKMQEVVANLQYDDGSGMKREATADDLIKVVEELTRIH
Form entry: value (%) — number only.

Given the entry O=C1CCC(N2Cc3cc(C4CCC(Cc5ccccc5)CC4)ccc3C2=O)C(=O)N1 (stereo not shown) , report its measured Dmax.
82

Given the entry O=C1CCC(N2Cc3cc(C[C@H]4CCCC[C@@H]4NCCOc4ccccc4Cl)ccc3C2=O)C(=O)N1 (stereo partly shown) , report its measured Dmax.
64

Given the entry CCC(N[C@H]1CCCC[C@@H]1Cc1ccc2c(c1)CN(C1CCC(=O)NC1=O)C2=O)C1CC1 (single isomer, unassigned) , report its measured Dmax.
93

Given the entry O=C1CCC(N2Cc3cc(C[C@H]4CCCC[C@@H]4NC4CC5CCC(C4)O5)ccc3C2=O)C(=O)N1 (stereo partly shown) , report its measured Dmax.
97

Given the entry [2H]C1(N[C@H]2CCCC[C@@H]2Cc2ccc3c(c2)CN(C2CCC(=O)NC2=O)C3=O)CC(C)(C)C1 (stereo partly shown) , report its measured Dmax.
96

Given the entry CC(N[C@H]1CCCO[C@@H]1Cc1ccc2c(c1F)CN(C1CCC(=O)NC1=O)C2=O)C1CCOCC1 (single isomer, unassigned) , report its measured Dmax.
94

Given the entry O=C1CCC(N2Cc3cc(C[C@H]4C=C(F)CC[C@@H]4NC4CCCCC4)ccc3C2=O)C(=O)N1 (stereo partly shown) , report its measured Dmax.
70

---

- subject.of.test: IKZF1 (Homo sapiens, UniProt Q13422+Q96SW2)
- Construct: expressed in transfected cells
- Sequence (Q13422 whole entry, one chain of several): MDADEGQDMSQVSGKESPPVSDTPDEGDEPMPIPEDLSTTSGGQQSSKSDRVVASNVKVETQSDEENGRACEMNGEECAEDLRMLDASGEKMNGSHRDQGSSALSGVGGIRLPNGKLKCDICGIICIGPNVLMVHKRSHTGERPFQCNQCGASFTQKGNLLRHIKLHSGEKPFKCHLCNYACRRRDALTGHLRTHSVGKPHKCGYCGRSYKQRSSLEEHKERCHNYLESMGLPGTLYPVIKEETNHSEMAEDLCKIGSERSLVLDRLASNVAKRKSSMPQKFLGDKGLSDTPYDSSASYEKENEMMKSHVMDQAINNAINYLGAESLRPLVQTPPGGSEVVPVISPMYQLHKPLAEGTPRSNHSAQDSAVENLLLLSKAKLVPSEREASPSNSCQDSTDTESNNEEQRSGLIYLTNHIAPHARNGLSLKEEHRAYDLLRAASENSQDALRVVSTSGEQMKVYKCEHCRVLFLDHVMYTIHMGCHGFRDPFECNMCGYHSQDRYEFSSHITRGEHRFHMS
- assay.notes: HEK293 HiBiT in vitro degradation of IKZF1
- Type: cell-based
- cond: HEK293 HiBiT, 18-24 hr incubation, normalized to DMSO control; read-out: IKZF1 EC50
Answer each item with its documented DC50.

Reported DC50 for IKZF1 (Homo sapiens, UniProt Q13422+Q96SW2), given CC1(C)CC(N[C@H]2CCCC[C@@H]2Cc2ccc3c(c2)CN(C2CCC(=O)NC2=O)C3=O)CC(C)(C)C1 (some centres unmarked) ?
> 1000 nM

Reported DC50 for IKZF1 (Homo sapiens, UniProt Q13422+Q96SW2), given O=C1CCC(N2Cc3c(ccc(C[C@H]4OCCC[C@@H]4NC4CCCOC4)c3F)C2=O)C(=O)N1 (single isomer, unassigned) [Example 262] ?
> 1000 nM

Reported DC50 for IKZF1 (Homo sapiens, UniProt Q13422+Q96SW2), given CC(CCC(F)F)N[C@H]1CCCO[C@@H]1Cc1ccc2c(c1F)CN(C1CCC(=O)NC1=O)C2=O (some centres unmarked) ?
> 1000 nM

Reported DC50 for IKZF1 (Homo sapiens, UniProt Q13422+Q96SW2), given CO[C@H]1CC[C@H](Cc2ccc3c(c2)CN(C2CCC(=O)NC2=O)C3=O)[C@@H](NC2CCC(F)(F)CC2)C1 (some centres unmarked) ?
41 nM

Reported DC50 for IKZF1 (Homo sapiens, UniProt Q13422+Q96SW2), given O=C1CCC(N2Cc3cc(C[C@H]4CCCC[C@@H]4NC4CCC(C(F)F)CC4)ccc3C2=O)C(=O)N1 (some centres unmarked) [Example 217] ?
85 nM

Reported DC50 for IKZF1 (Homo sapiens, UniProt Q13422+Q96SW2), given CC(CC(C)(C)C)N[C@H]1CCCC[C@@H]1Cc1ccc2c(c1)CN(C1CCC(=O)NC1=O)C2=O (some centres unmarked) [Example 220] ?
> 1000 nM

Reported DC50 for IKZF1 (Homo sapiens, UniProt Q13422+Q96SW2), given O=C1CCC(N2Cc3c(ccc(C[C@H]4CCCC[C@@H]4NC4CCOC4)c3F)C2=O)C(=O)N1 (some centres unmarked) [Example 118] ?
57 nM

Reported DC50 for IKZF1 (Homo sapiens, UniProt Q13422+Q96SW2), given O=C1CCC(N2Cc3cc(C[C@H]4CCCC[C@@H]4NCc4cc(F)ccc4F)ccc3C2=O)C(=O)N1 (some centres unmarked) ?
> 1000 nM

Reported DC50 for IKZF1 (Homo sapiens, UniProt Q13422+Q96SW2), given CN(C1CCC(F)(F)CC1)[C@H]1CCCC[C@@H]1Cc1ccc2c(c1F)CN(C1CCC(=O)NC1=O)C2=O (some centres unmarked) ?
> 10000 nM

Reported DC50 for IKZF1 (Homo sapiens, UniProt Q13422+Q96SW2), given O=C1CC[C@H](N2Cc3c(ccc(C[C@H]4OCCC[C@@H]4NC4CCC(F)(F)CC4)c3F)C2=O)C(=O)N1 (single isomer, unassigned) ?
> 1000 nM

Reported DC50 for IKZF1 (Homo sapiens, UniProt Q13422+Q96SW2), given O=C1CCC(N2Cc3cc(C[C@H]4CCCC[C@@H]4NCc4ccccn4)ccc3C2=O)C(=O)N1 (some centres unmarked) ?
> 1000 nM

Reported DC50 for IKZF1 (Homo sapiens, UniProt Q13422+Q96SW2), given CC(CC1CC1)N[C@H]1CCCC[C@@H]1Cc1ccc2c(c1)CN(C1CCC(=O)NC1=O)C2=O (some centres unmarked) [Example 204] ?
> 1000 nM

Reported DC50 for IKZF1 (Homo sapiens, UniProt Q13422+Q96SW2), given O=C1CCC(N2Cc3cc(C[C@H]4CCCC[C@@H]4NCc4c(F)cccc4F)ccc3C2=O)C(=O)N1 (some centres unmarked) ?
> 1000 nM

Reported DC50 for IKZF1 (Homo sapiens, UniProt Q13422+Q96SW2), given O=C1CCC(N2Cc3cc(C[C@H]4CCCC[C@@H]4NCC4CCOCC4)ccc3C2=O)C(=O)N1 (some centres unmarked) ?
> 1000 nM

---

Answer each item with its documented DC50.
- subject.of.test: IKZF2 (Homo sapiens, UniProt Q96SW2+Q9UKS7)
- assay.notes: Human whole blood IKZF2 degradation (flow cytometry, CD4/CD25/Foxp3+ Treg cells)
- Type: cell-based
- Set-up: endogenous in cells
- cond: 24 hrs incubation, IKZF2 MFI in CD4/CD25/Foxp3+ Treg cells, flow cytometry, read-out: IKZF2 EC50
- Sequence (Q9UKS7 whole entry): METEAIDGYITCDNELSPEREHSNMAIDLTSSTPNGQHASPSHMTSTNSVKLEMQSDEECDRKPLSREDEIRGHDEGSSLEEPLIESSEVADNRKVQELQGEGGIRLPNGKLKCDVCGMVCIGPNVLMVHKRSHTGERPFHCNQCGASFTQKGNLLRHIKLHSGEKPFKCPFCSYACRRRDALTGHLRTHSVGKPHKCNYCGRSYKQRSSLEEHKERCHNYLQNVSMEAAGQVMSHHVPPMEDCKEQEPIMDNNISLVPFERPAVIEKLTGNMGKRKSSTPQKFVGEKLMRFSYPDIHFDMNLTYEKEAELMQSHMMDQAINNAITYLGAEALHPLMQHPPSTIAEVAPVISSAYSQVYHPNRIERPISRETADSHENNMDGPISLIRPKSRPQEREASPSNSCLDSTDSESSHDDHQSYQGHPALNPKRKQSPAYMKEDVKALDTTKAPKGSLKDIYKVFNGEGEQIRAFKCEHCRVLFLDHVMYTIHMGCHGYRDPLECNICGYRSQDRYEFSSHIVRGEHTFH
- Sequence (Q96SW2 whole entry): as the sequence (Q96SW2 whole entry) above
- Sequence (Q16531 whole entry partner): as the sequence (Q16531 whole entry partner) above
Form entry: value (nM) — number only.

Given the entry CC(CC(C)(C)C)N[C@H]1CCCC[C@@H]1Cc1ccc2c(c1)CN(C1CCC(=O)NC1=O)C2=O (stereo partly shown) [Example 220] , report its measured DC50.
3

Given the entry CC(CC(C)(C)C)N[C@H]1CCCC[C@@H]1Cc1ccc2c(c1)CN(C1CCC(=O)NC1=O)C2=O (stereo partly shown) [Example 221] , report its measured DC50.
4

Given the entry O=C1CCC(N2Cc3cc(C[C@H]4CCCC[C@@H]4NC4CCCC4)ccc3C2=O)C(=O)N1 (stereo partly shown) , report its measured DC50.
5

Given the entry O=C1CCC(N2Cc3cc(C[C@H]4CCCC[C@@H]4NC4CC5CC5C4)ccc3C2=O)C(=O)N1 (single isomer, unassigned) , report its measured DC50.
6

---

Answer each item with its documented log10(DC50).
- subject.of.test: IKZF2 (Homo sapiens, UniProt Q96SW2+Q9UKS7)
- assay.notes: HEK293 HiBiT in vitro degradation of IKZF2
- Assay type: cell-based
- Parameters: expressed in transfected cells
- cond: HEK293 HiBiT, 18-24 hr incubation, normalized to DMSO control; read-out: IKZF2 EC50
The base-10 logarithm of DC50, taken with DC50 in nM, is what appears here.

Given the entry O=C1CCC(N2Cc3c(ccc(O[C@H]4CCCC[C@@H]4NC4CCC(F)(F)CC4)c3F)C2=O)C(=O)N1 (stereo partly drawn) [Reference Compound B-1, reference compound] , report its measured log10(DC50).
0.78

Given the entry O=C1CCC(N2Cc3c(ccc(C[C@H]4OCCC[C@@H]4NC4CCc5cn[nH]c5C4)c3F)C2=O)C(=O)N1 (stereo partly drawn) [Example 374] , report its measured log10(DC50).
1.76

Given the entry O=C1CCC(N2Cc3cc(C[C@H]4CCCC[C@@H]4NC4CCCOC4)ccc3C2=O)C(=O)N1 (single isomer, unassigned) [Example 260] , report its measured log10(DC50).
0.70

Given the entry CC(C)CCN[C@H]1CCCC[C@@H]1Cc1ccc2c(c1)CN(C1CCC(=O)NC1=O)C2=O (stereo partly drawn) , report its measured log10(DC50).
1.11

Given the entry CCCC(CCC)N[C@H]1CCCC[C@@H]1Cc1ccc2c(c1)CN(C1CCC(=O)NC1=O)C2=O (stereo partly drawn) , report its measured log10(DC50).
1.36

Given the entry O=C1CC[C@H](N2Cc3c(ccc(C[C@H]4OCCC[C@@H]4NC4CCCCC4)c3F)C2=O)C(=O)N1 (single isomer, unassigned) , report its measured log10(DC50).
0.78

---

- subject.of.test: IKZF2 (Homo sapiens, UniProt Q96SW2+Q9UKS7)
- assay.notes: HEK293 HiBiT in vitro degradation of IKZF2
- Assay type: cell-based
- Set-up: expressed in transfected cells
- cond: HEK293 HiBiT, 18-24 hr incubation, normalized to DMSO control; read-out: IKZF2 EC50
readout.name: DC50 (nM)
Form entry: value (nM) — number only.

Given the entry O=C1CCC(N2Cc3cc(C[C@H]4CCCC[C@@H]4NCCC(F)(F)F)ccc3C2=O)C(=O)N1 (stereo partly shown) , report its measured DC50.
16

Given the entry O=C1CCC(N2Cc3cc(C[C@H]4OCCC[C@@H]4NC4CCC(F)CC4)ccc3C2=O)C(=O)N1 (single isomer, unassigned) [Example 367] , report its measured DC50.
15

Given the entry O=C1CCC(N2Cc3cc(C[C@H]4C[C@H](F)CC[C@@H]4NC4CCC(F)(F)CC4)ccc3C2=O)C(=O)N1 (stereo partly shown) , report its measured DC50.
1

Given the entry N#CCC1CCC(N[C@H]2CCCC[C@@H]2Cc2ccc3c(c2)CN(C2CCC(=O)NC2=O)C3=O)CC1 (single isomer, unassigned) [Example 269] , report its measured DC50.
3

Given the entry CC(N[C@H]1CCCC[C@@H]1Cc1ccc2c(c1)CN(C1CCC(=O)NC1=O)C2=O)C1(C)CCC1 (stereo partly shown) [Example 206] , report its measured DC50.
6

Given the entry O=C1CCC(N2Cc3cc(C[C@H]4CCCC[C@@H]4NCc4ccncc4)ccc3C2=O)C(=O)N1 (stereo partly shown) , report its measured DC50.
45

Given the entry CC1(C)CC(N[C@H]2CCCC[C@@H]2Cc2ccc3c(c2)CN(C2CCC(=O)NC2=O)C3=O)C1 (stereo partly shown) , report its measured DC50.
7
